Molecular target: HCV NS5B (Hepatitis C virus genotype 1b)
Construct: fusion protein, of which the carboxyl terminal 21 amino acids were removed to enhance its solubility; His tag (GSHHHHHH); made in house; host or cells: E. coli
Test: Inhibition of viral RNA-dependent RNA polymerase (RdRp), in vitro biochemical assay
Set-up: species or system HCV genotype 1b virus (BB7)
Settings: HCV NS5B RdRp, BB7 genotype 1b; read-out: HCV pol-BB7 IC50
Procedure: The HCV NS5B-directed RdRp activity was established and characterized in a standard in vitro biochemical assay using a purified HCV NS5B protein derived from the consensus sequence of a patient infected with HCV genotype 1b virus (BB7). […] In addition to evaluating their activity in the replicon assay, representative compounds within the scope of the present invention, as shown in examples 1-453 of Table 1, were also evaluated for antiviral activity using this assay. […]
pIC50: −log10 of the molar value.
This listing pairs compounds with measured pIC50.

Here is how some compounds turned out for pIC50.
Summary for this compound, CNC(=O)c1c(-c2ccc(F)cc2)oc2cc(NCC3CC3)c(OC(C)C)cc12 : pIC50 is ≥ 6.30

Summary for this compound, CNC(=O)c1c(-c2ccc(F)cc2)oc2cc(N3CCCCC3)c(OC(C)C)cc12 : pIC50 is ≥ 6.30

Summary for this compound, CNC(=O)c1c(-c2ccc(F)cc2)oc2cc(CNS(C)(=O)=O)c(OC(C)C)cc12 : pIC50 is 5.30 to 6.30

More entries:
Summary for this compound, CNC(=O)c1c(-c2ccc(F)cc2)oc2cc(OC)c(O)cc12 : pIC50 is 4.52 to 5.30
